# testTarget: Broad substrate specificity ATP-binding cassette transporter ABCG2 (Homo sapiens) (UniProt Q9UNQ0)
# Sequence (Q9UNQ0 whole entry, looked up): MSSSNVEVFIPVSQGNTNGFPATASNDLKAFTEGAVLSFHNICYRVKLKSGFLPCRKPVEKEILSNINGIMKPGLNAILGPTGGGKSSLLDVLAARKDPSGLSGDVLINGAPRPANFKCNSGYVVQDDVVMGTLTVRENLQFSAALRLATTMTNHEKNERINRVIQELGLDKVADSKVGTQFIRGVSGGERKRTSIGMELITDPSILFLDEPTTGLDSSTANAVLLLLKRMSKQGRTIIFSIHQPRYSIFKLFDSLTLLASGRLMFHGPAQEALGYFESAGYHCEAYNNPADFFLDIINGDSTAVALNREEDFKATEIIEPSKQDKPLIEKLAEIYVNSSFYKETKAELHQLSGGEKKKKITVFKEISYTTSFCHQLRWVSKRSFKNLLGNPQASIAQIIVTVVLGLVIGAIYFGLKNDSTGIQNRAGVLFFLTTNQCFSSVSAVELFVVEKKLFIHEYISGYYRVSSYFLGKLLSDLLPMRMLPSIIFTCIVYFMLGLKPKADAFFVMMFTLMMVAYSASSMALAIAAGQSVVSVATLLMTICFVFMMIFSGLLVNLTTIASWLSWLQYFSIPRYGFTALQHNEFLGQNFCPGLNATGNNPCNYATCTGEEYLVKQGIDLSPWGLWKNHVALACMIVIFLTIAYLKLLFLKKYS
# assayRemarks: ABCG2 efflux pump inhibitors, primary screen, multiplex with ABCB1, IgMXP3 cells, flow cytometry (AID 1325);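 further: 0% = DMSO and 100% = nicardipine control wells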
# conditionLabel: JC-1 efflux, at 6.6 µM
In all, about 190,000 compounds went through this assay and about 200 (0.11%) were called active.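 How the source made its calls: active means inhibition above 80%; inactive means the rest.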 This is one part of a sample in which actives are shown more often than they occur.
Just give me one of these, please: true (1) for active, false (0) for inactive

q: Record request — test call for `CN(C)C(=O)Oc1cc(=O)n2c3c(cccc13)CCC2`
a: false (0)

q: Per the records of this test, what outcome belongs to `COC(=O)COc1cc(C)cc2oc(=O)c3c(c12)CCCC3` ?
a: true (1)

q: In this assay, the call recorded for `Cc1ccc(-c2nc3ccccc3c(=O)n2-c2ccc(Br)cn2)cc1` was what?
a: false (0)

In the following, a different molecule is considered.
q: What did the test return for `Cc1cc(OCc2cc(C(=O)O)oc2C)c2c3c(c(=O)oc2c1)CCCC3` ?
a: false (0)
